experimental details: Half life in rhesus monkey
Assay type: ADME, organism-based, Macaca mulatta
assay setup: in vivo
reported property: half-life (h)
Response body: numeric value in h, unit text excluded.

Request: Quote half-life reported for "O=C([C@@H]1C[C@H]1c1ccc(C(F)(F)F)cc1)N1CCN(S(=O)(=O)c2cc(-c3nnc[nH]3)cc(C(F)(F)F)c2)CC1" please.
Response: 2

---

target or test system: Cannabinoid receptor 1 (Homo sapiens)
Sequence (P21554 whole entry): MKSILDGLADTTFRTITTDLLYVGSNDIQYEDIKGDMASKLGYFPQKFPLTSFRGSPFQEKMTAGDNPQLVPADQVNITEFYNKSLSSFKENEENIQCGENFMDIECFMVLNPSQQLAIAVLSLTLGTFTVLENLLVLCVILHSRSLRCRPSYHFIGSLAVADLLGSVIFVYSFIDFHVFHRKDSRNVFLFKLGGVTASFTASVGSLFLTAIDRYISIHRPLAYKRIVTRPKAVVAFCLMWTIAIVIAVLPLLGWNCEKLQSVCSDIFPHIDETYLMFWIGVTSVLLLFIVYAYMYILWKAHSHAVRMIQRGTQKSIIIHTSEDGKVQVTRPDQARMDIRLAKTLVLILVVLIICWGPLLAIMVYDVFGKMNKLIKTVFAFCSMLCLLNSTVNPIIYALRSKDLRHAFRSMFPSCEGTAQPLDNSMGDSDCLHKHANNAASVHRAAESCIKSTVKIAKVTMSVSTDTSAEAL
experimental details: Inverse agonist activity at human recombinant CB1R expressed in CHO cells assessed as increase in forskolin-stimulated cAMP level
Type: functional, cell-based
pEC50: −log10 of the molar value.
reported property: pEC50

Request: Report pEC50 from Cannabinoid receptor 1 (Homo sapiens) testing of "O=C(c1ccccc1)N1CCN(S(=O)(=O)c2cc(C(F)(F)F)cc(C(F)(F)F)c2)CC1"
Response: < 5.00

Request: Report pEC50 from Cannabinoid receptor 1 (Homo sapiens) testing of "O=C(Cc1ccc(C(F)(F)F)cc1)N1CCN(S(=O)(=O)c2cc(C(F)(F)F)cc(C(F)(F)F)c2)C1"
Response: < 5.00

Request: Report pEC50 from Cannabinoid receptor 1 (Homo sapiens) testing of "O=C(C1CCCCC1)N1CCN(S(=O)(=O)c2cccc(C(F)(F)F)c2)CC1"
Response: < 5.00
